- System: xanthurenic acid receptor
- ASSAY EXPLANATION: Screening: displacement of [3H]-XA binding to synaptic membranes at a fixed concentration
- MEASUREMENT SETUP: compound at 10 μM; 200 nM [3H]-XA, synaptic membranes; xanthurenic acid set arbitrarily to 100%
Please note: Satisfied applies when % inhibition of XA binding at 10 μM* is 50% or greater, and Not satisfied applies otherwise.

Observe how each entry below is paired with its result.
Enquiry: Hi team, for "O=C(O)c1cc(O)c2c(CO)ccc(O)c2n1" , is the recorded % inhibition of XA binding at 10 μM* at or above 50%?
Return: Satisfied

Enquiry: Try the compound "Cc1cc(O)c2nc(C(=O)O)cc(O)c2c1"
Return: Not satisfied

Enquiry: Try the compound Cl.O=C(O)c1cc(N2CCCCC2)c2cccc(O)c2n1 [Compound 100c]
Return: Satisfied

Enquiry: Try the compound O=C(O)c1nc2c(O)cccc2c(O)c1CN1CCOCC1 [Compound 39b]
Return: Satisfied

Enquiry: Try the compound NCCCc1cc(N)c2nc(C(=O)O)cc(O)c2c1 [Compound 121c]
Return: Satisfied

Next:
Enquiry: Hi team, for CN1CCN(c2cccc3c(O)cc(C(=O)O)nc23)CC1.Cl [Compound 107b] , is the recorded % inhibition of XA binding at 10 μM* at or above 50%?
Return: Not satisfied

Enquiry: Try the compound CN(C)c1cccc2c(O)cc(C(=O)O)nc12 [Compound 41d]
Return: Not satisfied

Enquiry: Try the compound O=C(O)c1nc2c(O)c(Br)ccc2c(O)c1Br [Compound 56c]
Return: Satisfied
